- experimentalTarget: T1, ProQ (minimal ProQ, FinO domain with short N- and C-terminal extensions) (Neisseria meningitidis, UniProt Q9JY98 1-141)
- T1 sequence: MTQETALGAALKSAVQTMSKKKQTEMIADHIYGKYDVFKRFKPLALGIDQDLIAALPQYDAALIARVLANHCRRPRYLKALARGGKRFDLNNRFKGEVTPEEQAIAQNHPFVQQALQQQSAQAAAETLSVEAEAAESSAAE
- protocolDescription: EMSA; max bound 79%; 25 mM Tris pH 7.5, 150 mM NaCl, 5% glycerol, 1 mM MgCl2, 1 nM 32P-RNA, ProQ up to 50 nM, 30 min at room temperature; 6% native gel at 4 C
- testParameters: protein: recombinant; tags: N-terminal His6-TEV, cleaved; one extra N-terminal Ser remains; label: 5'-32P; terminator hairpin, 6-U tail
metricName: pKd
As a rule, pKd stands for the negative log10 of the concentration, concentration in M.

Ask | Provide one value: measured pKd of AniS-U6 (structured_RNA) RNA: GGUUUCCUCUUGAUGUGUGUGUUUGGGUGUGGCUGCCGCCACCCCUUUUUU
Reply | 9.15
